Source listed as PubChem BioAssay (NCI).

- Test system: NCI/ADR-RES ovarian
- EXPERIMENT DESCRIPTION: NCI tumour cell line growth inhibition, 48 h
QUANTITY KIND: TGI

Look over these answered cases.
O=C(O)C(F)(F)C(F)(F)C(F)(F)C(F)(F)C(=O)O : > 100 µM
C=C1C[C@@H]2C/C=C/C(=O)C/C(C)=C\C=C\C(=O)O[C@H](C=O)C/C(C)=C/[C@H](C1)O2 : > 100 µM
CSc1nc2c(c(=O)n1C)N=C(c1ccc(Cl)cc1)CC(c1ccccc1)N2 (centres undefined) : 74.1 µM
Cc1ccc(S(=O)(=O)Nc2nc3ccccc3c(=O)n2C2CCCCC2)cc1 : > 100 µM
c1cc2c(cc1C(N1CCNCC1)N1CCNCC1)OCO2 : > 100 µM

Give TGI for Nc1ccc(C(=O)c2ccc(N)c(Br)c2)cc1Br tested on NCI/ADR-RES ovarian.
> 46.2 µM

Give TGI for c1ccc2[nH]c(SSc3nc4ncncc4[nH]3)nc2c1 tested on NCI/ADR-RES ovarian.
> 100 µM

Give TGI for COc1ccc2c(c1)C1Oc3ccccc3CC1(O)CO2 (centres undefined) tested on NCI/ADR-RES ovarian.
> 100 µM

Give TGI for CC1(C)NCCC[C@]2(C)[C@H]3C=CC4=C5C[C@](C)(CO)CC[C@]5(C)CC[C@@]4(C)[C@]3(C)CC[C@@H]12 tested on NCI/ADR-RES ovarian.
4.52 µM

====

- System: RXF 393 renal
- EXPERIMENT DESCRIPTION: NCI tumour cell line growth inhibition, 48 h
Listed below: TGI values for each entry.

CCC1=C[C@@H]2CN(C1)Cc1c([nH]c3ccccc13)[C@@](C(=O)OC)(c1cc3c(cc1OC)N(C=O)[C@H]1[C@@](O)(C(=O)OC)[C@H](OC(C)=O)[C@]4(CC)[C@@H]5C[C@@H]5CN5CC[C@]31[C@@H]54)C2 : > 6.25 µM
c1ccc2c(c1)CCN(C1=NCCO1)C2 : > 10 µM
Cc1cccc(/C=N/NC(=S)N2CCCCCC2)n1 : 38.9 µM

Please give the documented TGI of CC(=O)NC1=C(Nc2ccc(C)cc2)C(=O)c2ccccc2C1=O
> 75 µM

Please give the documented TGI of C=CCn1c(-c2ccccc2)cs/c1=N\C(P(=O)(O)O)P(=O)(O)O
> 100 µM

Please give the documented TGI of CCC(C)NC(=S)N/N=C(\C)c1ccccn1 (stereo not drawn)
26.9 µM

Please give the documented TGI of Cc1ccccc1CN1CC2=C(CCN(Cc3ccccc3)C2=O)N2CCN=C12
> 100 µM

Please give the documented TGI of C1CNCCNCCNCCN1
> 100 µM

====

Listed below: TGI values for each entry.
- System: DU-145 prostate
- EXPERIMENT DESCRIPTION: NCI tumour cell line growth inhibition, 48 h
Reply with just the number (in µM).

Look over these answered cases.
COc1ccc2c(c1)nc(N)c1c3cc(OC)c(OC)cc3cn21 : 8.63
CCCCCCCCCCC(C[N+](C)(C)C/C=C/c1ccccc1)C(O)c1ccccc1 (stereo not given) : 3.37
C=C1CC[C@@]2(C#N)[C@H]3[C@H](CC[C@@H]2C)[C@@H](C)C[C@@H](CC(C)(C)C#N)[C@H]13 : 16.2

Please give the documented TGI of OC(C1=C/C(=C\c2ccncc2)c2ccccc21)c1ccncc1 (stereo not given)
62.2

Please give the documented TGI of O=C(c1cc(F)c(Cl)cc1Cl)N1N=C(c2ccccc2)CC1(O)c1ccccc1 (stereo not given)
35.9

Please give the documented TGI of COc1cc(Cl)cc(-c2nn(C(=O)NCCN3CCN(C)CC3)cc2-c2ccncc2)c1
66.5

====

- Test system: NCI-H226 lung
- EXPERIMENT DESCRIPTION: NCI tumour cell line growth inhibition, 48 h
QUANTITY KIND: TGI

COc1ccc(-c2cc(C3CC3)nc(SCC(=O)O)c2C#N)cc1 : > 100 µM
CC1(CCc2ccccc2)CC1(Br)Br (stereo unspecified) : 77.1 µM
C=C(Cl)COC(=O)Nc1cccc(Cl)c1 : > 100 µM
CCOC(O)C(F)(F)F (stereo unspecified) : > 100 µM
CN(NC(=O)CC(=O)NN(C)C(=S)c1ccccc1)C(=S)c1ccccc1 : > 100 µM

Please give the documented TGI of CC(=O)C1CC2(c3ccc(C)cc3)C(c3ccc(C)cc3)=C(c3ccc(C)cc3)C1(c1ccc(C)cc1)S2=O (stereo unspecified)
> 100 µM

====

Listed below: TGI values for each entry.
- System: UACC-62 melanoma
- EXPERIMENT DESCRIPTION: NCI tumour cell line growth inhibition, 48 h

Look over these answered cases.
CCN1C(=O)N(CC)C2C1NN=c1s/c(=C3\C(=O)N(CC(C)C)c4ccccc43)c(=O)n12 (stereo not drawn) : 65.5 µM
N#CC1=C(N)N=C(N2CCCCC2)C(C#N)C12Nc1ccccc1S2 (stereo not drawn) : 49.1 µM
NNC(=Nc1ccccc1)SCc1ccccc1 : > 100 µM
CCCc1ccc(S(=O)(=O)N[C@H]2CC[C@H]3[C@@H]4CCc5cc(O)ccc5[C@H]4CC[C@]23C)cc1 : 4.37 µM
COc1ccc(C2S/C(=C\c3cc(OC)c(OC)c(OC)c3)C(=O)N2NC(=O)Cc2ccccc2)cc1 (stereo not drawn) : > 100 µM
CC(=O)Nc1nc(SCc2ccccc2)c2ncn(C(C)=O)c2n1 : > 100 µM

Please give the documented TGI of C[C@@H]1O[C@@H](O[C@@H]2[C@@H](O)[C@H](OCCc3ccc(O)c(O)c3)O[C@H](COC(=O)/C=C/c3ccc(O)c(O)c3)[C@H]2O)[C@H](O)[C@H](O)[C@H]1O
> 100 µM

Please give the documented TGI of COc1ccc(C[C@H]2NC(=O)/C=C/C[C@@H]([C@H](C)[C@H]3O[C@@H]3c3ccccc3)OC(=O)[C@H](CC(C)C)OC(=O)[C@H](C)CNC2=O)cc1
3.38e-05 µM

====

- System: HCT-15 colon
- EXPERIMENT DESCRIPTION: NCI tumour cell line growth inhibition, 48 h
Listed below: GI50 values for each entry.

Look over these answered cases.
CCCCCCCCCCC(C[N+](C)(C)C/C=C/c1ccccc1)C(O)c1ccccc1 (centres undefined) : 2.29 µM
Fc1ccc(Oc2nccc(-c3c(-c4ccc(F)cc4)ncn3C3CCNCC3)n2)cc1 : > 25 µM
CCN1C(=O)N(CC)C2C1NN=c1s/c(=C3\C(=O)N(CC(C)C)c4ccccc43)c(=O)n12 (centres undefined) : 0.438 µM
O=C1/C(=C/c2ccc(O)c([N+](=O)[O-])c2)CCC/C1=C\c1ccc(O)c([N+](=O)[O-])c1 : 9.77 µM
O=C1CCCCCCCC/C=C/CCC(c2ccco2)O1 (centres undefined) : > 100 µM
CC1(C)OC[C@@H]([C@@]2(CO[Si](C)(C)C(C)(C)C)CC=CC(=O)O2)O1 : 34.7 µM
CCOC(=O)Cc1csc(/N=C2\NC(=O)/C(=C3\C(=O)N(C)c4ccccc43)S2)n1 : 39.7 µM
Cn1ccc2c(NCCN)c3c(c(NCCN)c21)C(=O)c1ccccc1C3=O : 2.8 µM

Turning now to a further record.
Please give the documented GI50 of CCN(CC)CCOc1ccc(Nc2ncc3cc(-c4ccc(O)cc4)c(=O)n(C)c3n2)cc1
0.191 µM

====

- Tested on: RPMI-8226 leukemia
- EXPERIMENT DESCRIPTION: NCI tumour cell line growth inhibition, 48 h
QUANTITY KIND: TGI

Look over these answered cases.
Cc1nc2c(=O)[nH]c(=O)n(C)c2[nH]c1=O : > 100 µM
COc1c(C)c2c(c(O)c1C/C=C(\C)CCC(=O)OCCN1CCOCC1)C(=O)OC2 : > 100 µM

Give TGI for CN1c2ccccc2C(=O)NC12CCN(Cc1ccccc1)CC2 tested on RPMI-8226 leukemia.
> 100 µM

Give TGI for Cc1cc(C)c(O)c(CNCCCCCCNCc2cc(C)cc(C)c2O)c1 tested on RPMI-8226 leukemia.
4.96 µM

Give TGI for CC(C)=CCC/C(=C\CC/C(=C\CCc1ccoc1)C(=O)O)C(=O)O tested on RPMI-8226 leukemia.
> 100 µM

Give TGI for N#CN=C1c2ccccc2C(=NC#N)c2cc(CO)ccc21 tested on RPMI-8226 leukemia.
31 µM

====

- System: OVCAR-5 ovarian
- EXPERIMENT DESCRIPTION: NCI tumour cell line growth inhibition, 48 h
QUANTITY KIND: GI50

Please give the documented GI50 of Nc1nc(Nc2ccc3c(c2)CC[C@@H](N2CCCC2)CC3)nn1-c1cc2c(nn1)-c1ccccc1CCC2
1.63 µM

Please give the documented GI50 of c1ccc2[nH]c(SSc3nc4ncncc4[nH]3)nc2c1
13 µM

Please give the documented GI50 of CC1(C)NCCC[C@]2(C)[C@H]3C=CC4=C5C[C@](C)(CO)CC[C@]5(C)CC[C@@]4(C)[C@]3(C)CC[C@@H]12
12.4 µM

Please give the documented GI50 of COc1ccc(C2=NN(C(=O)COc3ccc(Cl)cc3)C(O)(c3cc(F)c(Cl)cc3Cl)C2)cc1OC (stereo not given)
5.91 µM

Please give the documented GI50 of COc1c(C)c2c(c(O)c1C/C=C(\C)CCC(=O)OCCN1CCOCC1)C(=O)OC2
2.09 µM
